- TEST SUMMARY: inhibitors of TWEAK-Fn14 signaling, primary screen, luciferase reporter cells, uHTS (AID 1159606)
- EXPERIMENTAL SETUP: TWEAK-stimulated Fn14 reporter cells, luciferase luminescence, 8 h; at 10 µM; hits give high values
Screen size: about 360,000 compounds; about 7,300 (2%) were called active. Shown is part of a subset that was picked to be rich in actives.
Task for the reader: assign each of the following compounds its reported inhibition.
Just the number please, in %, no unit attached.

For record COc1ccc(C(c2nnnn2C2CCCC2)N2CCN(C/C=C/c3ccccc3)CC2)cc1 (stereo unspecified) the listed inhibition is -2.02

For record O=C1CSC(=S)N1c1ccc(O)cc1 the listed inhibition is 75.1

For record CNC(=O)c1ccsc1NC(=O)c1ccc(S(=O)(=O)N2CCc3ccccc32)cc1 the listed inhibition is 54.5

For record O=C1CSC(=S)N1c1ccc(Cl)c(Cl)c1 the listed inhibition is 49.6

For record Cc1nc2nc(SCC(=O)c3ccccc3)[nH]c2cc1Br the listed inhibition is -4.34

For record COc1cc(N2C(=O)CC3(CCCC3)CC2=O)cc(OC)c1OC the listed inhibition is 15.3

For record COc1cc(N2C(=O)CSC2=S)cc(OC)c1OC the listed inhibition is 58.5

For record CC1CN(S(=O)(=O)c2ccc(C(=O)Nc3sccc3C(N)=O)cc2)CC(C)O1 (stereo unspecified) the listed inhibition is -0.86

For record CNC(=O)C1CN(C(=O)c2cccc(S(=O)(=O)N3CCc4ccccc43)c2)c2ccccc2O1 (stereo unspecified) the listed inhibition is 11.3

For record Cc1cc(SCC(=O)c2ccccc2)nc(SCC(=O)c2ccccc2)n1 the listed inhibition is 53.9

For record Cc1cc(C)cc(N(CCC#N)C(=O)CN2C(=O)NC3(CCCC3)C2=O)c1 the listed inhibition is -2.17

====

- TEST SUMMARY: inhibitors of TWEAK-Fn14 signaling, primary screen, luciferase reporter cells, uHTS (AID 1159606)
- EXPERIMENTAL SETUP: TWEAK-stimulated Fn14 reporter cells, luciferase luminescence, 8 h; at 10 µM; hits give high values
Hit rate of the full screen: of about 360,000 compounds, about 7,300 (2%) were called active. The sample as a whole holds a higher share of actives than the screen did.
Task for the reader: assign each of the following molecules its reported inhibition.
Just the number please, in %, no unit attached.

For record COc1ccc(NC(=O)CN2C(=O)NC(C)(c3ccccc3)C2=O)cn1 (stereo unspecified) the listed inhibition is -0.71

For record CNC(=S)N/N=C/c1ccc(N2CCOCC2)s1 the listed inhibition is 7.48

For record COC(=O)c1cccc(C(=O)N2CCCC(Nc3ccc4c(c3)OCCO4)C2)c1 (stereo unspecified) the listed inhibition is 13.2

For record CCc1ccccc1OCC(=O)Nc1ccc(C)c(S(=O)(=O)N2CCCCCC2)c1 the listed inhibition is 12.8

For record NC(=O)Nc1ccccc1C(=O)NCCc1ccccc1 the listed inhibition is 11.8

For record COc1ccc(NC(=O)/C(Cl)=C(/Cl)S(=O)Cc2ccc(C)cc2)cn1 (stereo unspecified) the listed inhibition is 97.5

For record Cc1ccccc1OCC(=O)Nc1ccc(N2CCN(C(=O)C(C)C)CC2)c(Cl)c1 the listed inhibition is 70.6

For record CCCOc1ccccc1-c1nc(SCCC(=O)O)n[nH]1 the listed inhibition is -9.1

For record Nc1ccccc1-c1nc2ccncc2[nH]1 the listed inhibition is -11.5

For record COc1cccc(NC(=O)Cn2c3ccc(F)cc3c3nc4n(c(=O)c32)CCS4)c1 the listed inhibition is 7

For record CCc1nc2c(OCC(N)=O)cccn2c1N(C)C(=O)c1ccc(OC)cc1 the listed inhibition is -0.65

====

Task for the reader: assign each of the following molecules its reported inhibition.
- TEST SUMMARY: inhibitors of TWEAK-Fn14 signaling, primary screen, luciferase reporter cells, uHTS (AID 1159606)
- EXPERIMENTAL SETUP: TWEAK-stimulated Fn14 reporter cells, luciferase luminescence, 8 h; at 10 µM; hits give high values
The campaign covered roughly 360,000 compounds. About 7,300 (2%) were called active. The full list was thinned out, with actives kept by preference.

For record Cc1ncoc1C(=O)N1CCCC(C(=O)c2ccc3c4c(cccc24)CC3)C1 (stereo unspecified) the listed inhibition is -10.9% (inactive)

For record CC(=O)Nc1ccc(C=CC(=O)c2ccc([N+](=O)[O-])cc2)cc1 the listed inhibition is 5.86% (inactive)

For record O=C(C(c1ccccc1)c1ccccc1)N1CCN(CC(O)COc2ccccc2)CC1 (stereo unspecified) the listed inhibition is 3.97% (inactive)

For record COc1ccc(CN2C(=O)C(CC(=O)NC3CCCCC3)CC(C(=O)N3CCOCC3)=C2C)cc1 (stereo unspecified) the listed inhibition is -7.48% (inactive)

For record O=C(CNc1ccccc1N1CCCC1=O)Nc1cc(Cl)ccc1-n1cncn1 the listed inhibition is 2.85% (inactive)

For record COc1cccc(CNC(=O)[C@@H]2CCCN2C(=O)[C@@H]2CCCN2C(=O)c2ccccc2)c1 the listed inhibition is 17.3% (inactive)

For record c1ccc(C(=NNc2nc3ccccc3s2)c2ccccn2)cc1 the listed inhibition is 44.1% (inactive)

For record CC1CC(=S)Nc2ccccc2N1Cc1ccccc1 (stereo unspecified) the listed inhibition is 13.5% (inactive)

For record CCCC(CCC(=O)OC)(C(=O)OCC)c1csc(N)n1 (stereo unspecified) the listed inhibition is -16.1% (inactive)

For record CC(C)Oc1ccc(S(=O)(=O)N2CCOCC2)cc1NC(=O)C1CSC2(C)CCC(=O)N12 (stereo unspecified) the listed inhibition is -10.2% (inactive)

For record O=C(NCc1cccnc1)c1cc(C2CCCN(C(=O)CCCc3ccccc3)C2)on1 (stereo unspecified) the listed inhibition is 0.68% (inactive)

For record COc1ccccc1Cc1c(-c2ccc(Cl)cc2)nc2c3ccccc3ccn12 the listed inhibition is -9.82% (inactive)

For record Cc1nn(-c2ccccc2)c(C)c1/C=C/C(=O)OC(C)C(N)=O (stereo unspecified) the listed inhibition is -4.83% (inactive)

For record CC(C)C[C@@H]1COc2cc(N3CCC[C@@H]3CO)ccc2S(=O)(=O)N1 the listed inhibition is 15.8% (inactive)

For record Cc1nn(-c2ccccc2)c(Cl)c1/C=C/C(=O)c1ccc(O)cc1 the listed inhibition is 57.3% (active)

For record O=C(/C=C/c1ccc(Cl)c([N+](=O)[O-])c1)c1ccc(O)cc1 the listed inhibition is 84.1% (active)

For record OC(CN=c1sc2ccccc2n1CC(O)COc1ccccc1)COc1ccccc1 (stereo unspecified) the listed inhibition is 70.7% (active)

For record O=C(N/N=C/c1cc(Br)c(O)c([N+](=O)[O-])c1)C(O)(c1ccccc1)c1ccccc1 the listed inhibition is -0.77% (inactive)

For record O=C(CCN1CCc2ccccc2C(O)(c2ccccc2)C1)c1ccc2c(c1)OCCO2 (stereo unspecified) the listed inhibition is 60.1% (active)

For record CCOC(=O)[C@H]1[C@H]2COc3ccc(C)cc3[C@@H]2N2C(=O)CN(Cc3ccc(F)cc3)C(=O)[C@@]12C the listed inhibition is -5.2% (inactive)

For record Cc1ccc(OCC(=O)Nc2ccccc2Sc2ccc(Cl)cc2)c([N+](=O)[O-])n1 the listed inhibition is 13.7% (inactive)

====

- TEST SUMMARY: inhibitors of TWEAK-Fn14 signaling, primary screen, luciferase reporter cells, uHTS (AID 1159606)
- EXPERIMENTAL SETUP: TWEAK-stimulated Fn14 reporter cells, luciferase luminescence, 8 h; at 10 µM; hits give high values
The campaign covered roughly 360,000 compounds. About 7,300 (2%) were called active. For the sample, actives were picked, then their nearest neighbours and some compounds at random.
Task for the reader: assign each of the following compounds its reported inhibition.
Just the number please, in %, no unit attached.

For record Cc1cc2nc(-c3ccc(NC(=O)c4cccnc4)cc3)oc2cc1C the listed inhibition is 52.2

For record Cc1cc(C)cc(NC(=O)N2CCC(NC(=O)c3ccc(F)cc3)CC2)c1 the listed inhibition is -39.6

For record CC(C)NS(=O)(=O)c1ccc(NC(=O)c2cccnc2)cc1 the listed inhibition is -3.3

For record Cc1ccc(Oc2cc(NC(=O)CCCn3nc(C)c([N+](=O)[O-])c3C)cc([N+](=O)[O-])c2)cc1 the listed inhibition is 29.9

For record COC(=O)c1ccc(NS(=O)(=O)c2cc3c4c(c2)C(C)C(=O)N4CCC3)cc1 (centres undefined) the listed inhibition is 9.82

For record Cc1cc(=O)oc2c3c(cc(OCC(=O)NCC(O)c4ccccc4)c12)OC(C)(C)CC3 (centres undefined) the listed inhibition is -0.31

For record CCC1CCc2c(sc(NC(C)=O)c2C#N)C1 (centres undefined) the listed inhibition is -8.64

For record Cc1ccccc1NC(=O)NC1(C(=O)N2CCCC2)CCCCC1 the listed inhibition is -3.42

For record Cc1nn(-c2ccccc2)c(C)c1NC(=O)CCl the listed inhibition is 6.77

For record O=C(CSc1nc2ccccc2c(=O)n1-c1ccccc1F)N1CCOCC1 the listed inhibition is 0.72

For record CC(C)Oc1ccc(CCc2n[nH]c(=S)n2Cc2ccccc2)cc1 the listed inhibition is -6.3

For record Cc1ccc(S(=O)(=O)NCC(C)NS(C)(=O)=O)cc1 (centres undefined) the listed inhibition is 4.2

For record C/C=C(/C)C(=O)OC1Cc2c(ccc3ccc(=O)oc23)OC1(C)C (centres undefined) the listed inhibition is 94.7

For record C=CCn1c(CNS(=O)(=O)c2ccc(Br)cc2)nnc1SC the listed inhibition is 8.19

For record Cc1[nH]c2ccccc2c1C(=O)C(=O)NCc1nnnn1-c1cccc(F)c1 the listed inhibition is 3.05

For record CCCc1ccc(-c2c(C)sc(NC(=O)c3ccnn3C)c2C#N)cc1 the listed inhibition is 13.3

For record COc1cc(-c2nnc(Cn3cc(C(F)(F)F)ccc3=O)o2)cc(OC)c1OC the listed inhibition is -25.3

For record CCOC(=O)c1c(C2CC2)csc1NC(=O)CSCc1c(C)noc1C the listed inhibition is -9.7

For record O=C(O)CSCc1ccc(C(=O)O)o1 the listed inhibition is -3.63

For record CC(=O)OCC(C)n1c(=O)c2ccccc2n1C(C)=O (centres undefined) the listed inhibition is 2.6

For record Cc1ccc(CN2CCCOCCS2(=O)=O)cc1 the listed inhibition is -9.75

For record COCn1c(C(O)c2ccccc2)cc2ccccc21 (centres undefined) the listed inhibition is 3.63

For record O=C(Nc1c(Br)cc2c(c1Br)Cc1cc([N+](=O)[O-])ccc1-2)C(Cl)Cl the listed inhibition is -30.1

For record CC(=O)c1ccc(N2CCN(C(=O)CCc3ccccc3)CC2)cc1 the listed inhibition is -0.25

For record COc1cc(-c2n[nH]c(=S)n2Cc2ccccc2)cc(OC)c1OC the listed inhibition is -2.96

For record CC(=O)N1CCN(CC(C)(C)NS(=O)(=O)c2ccc(C)cc2)CC1 the listed inhibition is 14

For record O=C(NCCc1ccccn1)c1cc(C(=O)C2CCCCC2)c[nH]1 the listed inhibition is 4.9

For record O=S(=O)(NCCCCCCNS(=O)(=O)c1c(F)cccc1F)c1ccc2c(c1)OCCO2 the listed inhibition is 16.7

For record NC(=NC(=O)c1ccccc1)N1CCOCC1 the listed inhibition is -6.39

For record FC(F)(F)c1cc(C(F)(F)F)c2ccc(N3CCN(c4ccccc4)CC3)nc2n1 the listed inhibition is -12.2

For record FC(F)(F)Oc1ccccc1C(c1nnnn1C1CCCCC1)N1CCN(C/C=C/c2ccccc2)CC1 (centres undefined) the listed inhibition is 24.4

For record Cc1cc(C)cc(NC(=O)N2CCCCCCC2)c1 the listed inhibition is -11.9

For record Cc1ccc2nc(-c3ccc(NC(=O)c4cccnc4)cc3)oc2c1 the listed inhibition is 71.4

For record COCCN(C(=O)C(C)N1C(=O)c2ccccc2C1=O)c1c(N)n(CC(C)C)c(=O)[nH]c1=O (centres undefined) the listed inhibition is 2.19

For record CC(C)Oc1ccc(Cc2n[nH]c(=S)n2Cc2ccccc2)cc1Cl the listed inhibition is 92.2

For record N#Cc1ccccc1CN1C(=O)S/C(=C/c2cccn2-c2cccc(C(=O)O)c2)C1=O the listed inhibition is 0.32

For record Cc1nn(-c2ccccc2)c(C)c1NC(=O)COC(=O)c1cc(Cl)ccc1O the listed inhibition is 1.71

For record O=C1N/C(=C/c2cccn2-c2ccccc2)C(=O)N1c1cccc(Cl)c1 the listed inhibition is 62.3

For record O=C1CC(NNc2ccccc2)C(=O)N1c1cccc(Cl)c1 (centres undefined) the listed inhibition is 15.1

For record O=C1NC[C@H](CCCCN2C[C@H](Cc3ccc(O)cc3)N(CC3CCCCC3)C(=O)C2=O)N(CCc2ccccc2)C1=O the listed inhibition is 2.86

For record Cc1ccc(-n2nc3cc(C)c(NC(=O)c4cccnc4)cc3n2)cc1 the listed inhibition is 8.31

For record CC1CN(C(=S)SCC(=O)c2ccccc2)CC(C)O1 (centres undefined) the listed inhibition is 3.23

For record CCn1cc(CN2CCCC(CNS(=O)(=O)Cc3ccccc3)C2)cn1 (centres undefined) the listed inhibition is 1.85

For record O=C(CSC(=S)N1CCOCC1)c1ccccc1 the listed inhibition is 71.9

meta.source: PubChem BioAssay AID1159606
